system: Radical scavenging activity; assay: Antioxidant activity assessed as DPPH free radical scavenging activity; assay type: functional
measured.metric: EC50 (µM)
Enter your answer as a number in µM; do not include the unit.

Identify the measured EC50 of Cc1c(C)c2c(c(C)c1O)CCC(C)(CCCC(C)CCCC(C)CCCC(C)C)O2 (racemic) [alpha-TOCHOPHEROL] for Radical scavenging activity.
19.9

Identify the measured EC50 of Oc1cccc(O)c1O [PYROGALLOL] for Radical scavenging activity.
4.2

Identify the measured EC50 of O=C(O)c1cc(O)c(O)c(O)c1 [GALLIC ACID] for Radical scavenging activity.
4.2

Identify the measured EC50 of O=C1O[C@H]([C@@H](O)CO)C(O)=C1O [ASCORBIC ACID] for Radical scavenging activity.
16.6

Identify the measured EC50 of COc1c(O)cccc1O [2-METHOXYRESORCINOL] for Radical scavenging activity.
99.6

----------
Hi there, I'd appreciate the recorded EC50 for every entry that follows.
system: Radical scavenging activity; assay: Antioxidant activity assessed as DPPH free radical scavenging activity; format: functional

For the molecule COc1c(O)cccc1O[C@@H]1O[C@H](C(=O)O)[C@@H](O)[C@H](O)[C@H]1O , what EC50 is on record?
> 100 µM

For the molecule COc1c(O)cc(C(=O)O)cc1O , what EC50 is on record?
> 100 µM

For the molecule COc1c(O)cc(C(=O)O)cc1OS(=O)(=O)O , what EC50 is on record?
> 100 µM
